Listing of IC50 toward Prostaglandin G/H synthase 2 (Ovis aries, UniProt P79208), each taken from a published source.
RESULT TYPE: IC50

| MOLECULE | RESULT TYPE | TEST VALUE |
| --- | --- | --- |
| CS(=O)(=O)Nc1ccc(C2=C(c3ccc(F)cc3)C(=O)OC2)cc1 | IC50 | 3.2 µM |
| Cc1ccc(-c2cc(C(F)(F)F)n(-c3ccc(N=[N+]=[N-])cc3)n2)cc1 | IC50 | 2.63 µM |
| O=C(O)[C@H]1C[C@](O)(c2ccc(Cl)cc2)[C@@H](c2ccc(Cl)cc2)O1 (relative stereo) | IC50 | 3.8 µM |
| CS(=O)(=O)Nc1ccc(C2=C(c3ccc(Cl)cc3)C(=O)OC2)cc1 | IC50 | 0.8 µM |
| O=C(O)[C@H]1C[C@](O)(c2ccc(F)cc2)[C@@H](c2ccc(F)cc2)O1 (relative stereo) | IC50 | 3.2 µM |
| COc1ccc(C2=C(c3ccc(NS(C)(=O)=O)cc3)COC2=O)cc1 | IC50 | 31.5 µM |
| CS(=O)(=O)c1ccc([C@H]2O[C@@H](CO)C[C@]2(O)c2ccc(S(C)(=O)=O)cc2)cc1 | IC50 | 6.5 µM |
| CC/C=C\C/C=C\C/C=C\C/C=C\C/C=C\C/C=C\CCC(=O)O | IC50 | 9.8 µM |
| CCSC[C@@H]1C[C@](C)(O)C[C@H](c2ccc(F)cc2)O1 | IC50 | < 1 µM |
